Assay: folding stability dG unfold (combined trypsin and chymotrypsin); higher = more stable
Label True when folding stability dG unfold is at or above 0.4 kcal/mol; otherwise label False.

sequence_code | group_label
SAGGMADEELANMSLEEVIAAVKEAGAKTVTVTFPDGSTLTIDLGDDGVVTVTLTTPPGEKETFEIPSAGGS [r8_51_TrMRF] | True
SAGGSAGGSAGGSIVVETKKNPGPERVVTVKLPDGTPLADVPVSPDEDPEEAVKRALELGSAGGSAGGSAGG [r7_444_JUSTAS] | False
SAGGSAGGSAGVKIRMRGPNGSESKIPVPPDAIQDKFPPGDPIRIPIHRHNNNFHMDIEPVSAGGSAGGSAG [r3_86_TrROS] | False
SASVVDLETDGSMSVEEVVERFKKENPNVKEVKVTTEALPDEPKYRITLTITEDKGKTEENLKKTKELKSAG [r14_645_JUSTAS] | False
SAGGSAGGSAGGPYLRIKWKHPENGKTREIEIPFEGKPLEEIADNIKKEHGMTVTDIEPVSAGGSAGGSAGG [r7_590_TrROS] | False
ENYVAIEITMEMPNPDGMEMKFDLKIIKLDPDDGKFAIEMSMEMENPNGKPYRHPMWFVIPADELKEFLEAS [r1_371_TrROS] | True
SAGGSAGGSAGMKTTTLEVSTDPSGYTTTKTKIEIINENTPSISTSTVVTAVTPPAPPIASAGGSAGGSAGG [r11_830_JUSTAS] | False

----------
Assay: folding stability dG unfold from trypsin proteolysis; higher = more stable
assay_metric: folding stability dG unfold (kJ/mol)

sequence_code | assay_metric | unit_abbreviation | observed_result
SAGGSALPPGQEVEITIMIMVMIYNPENGRMWMVMASVEIEIRVDPKNGKLEIKIKKISISIFPMDSAGGSA [r15_517_TrROS] | folding stability dG unfold | kJ/mol | 17.7
SAGGLKEIAKQLGPGADKVEIEWEPQPHDDMEMYRWKIRVKNPNNGKKRKLEVSIMYDPNGNIRSIMISAGG [r13_358_TrROS] | folding stability dG unfold | kJ/mol | 7.74
SALKIEISFPGNAGEVRERVLGREDGSYEVEFLVTFPTPGDGIPSVLRVTYRVDPVSGKIEPRLEPVDASAG [r14_590_TrMRF] | folding stability dG unfold | kJ/mol | 6.17
SAGGSAGGPVKIHVHVNPEEGYYMIEVRSGNEPRHIMIPMDKEEIKSFIENLPPGIEVEIHPMPSAGGSAGG [r6_401_TrROS] | folding stability dG unfold | kJ/mol | 5.73

----------
Test: folding stability dG unfold from chymotrypsin proteolysis; higher = more stable
Label rule met when folding stability dG unfold is at or above 0.2 kcal/mol; otherwise label rule not met.

sequence_code | group_label
SAGGSAKVKIYLIKLPPNGNPLEVIKKVKEKGGNAIIVSGPGLHAVIEADEPEEAAKKAKEILEKLSAGGSA [r15_546_TrMRF] | rule not met
SAGGSSPLLLTSSPTPLTLPDGGTVTLTTTRVPGDNADVVTITTTPPGTGTTTVTTLPASTAAATLSAGGSA [r2_366_JUSTAS] | rule met
SAGGSAMTITIKIENEDVTIPSSKSKEEILKAIKENPDVPVTVTLPDGTPVTLSPEELEKLIKEEKSAGGSA [r15_36_JUSTAS] | rule met
SAGGEPRLGRVLLDIDIAVDPERAEREEDREEALERALEIAERAEARLRELDPDVPVVVNIRLLDVGSAGGS [r8_183_TrMRF] | rule met
SAGGSAGDPSLPQPQYIAFLLVTKPGGVEEPLEVEVKTEEEAEKIAQEVRDAGYEVELELRPAALLSAGGSA [r15_906_JUSTAS] | rule met
SAGGSAGGSAGGITPEYVERARKEAQDQYPPGKEREIIIRNPDNGKEITIRYTPDKIEIMSAGGSAGGSAGG [r7_45_TrROS] | rule not met

----------
Assay: folding stability dG unfold from trypsin proteolysis; higher = more stable
A collection of sequences and their measured folding stability dG unfold

sequence_code | folding stability dG unfold
SAGGSAGGSAGGVPRLERFTLSPNGLPVRIFVDGDRALVVFEGPDGGLAVATFAVSDIPFSAGGSAGGSAGG [r7_653_TrMRF] | 0.857 kcal/mol
SAGGSMIEVERDPNDPNRYRARLPVIEENPPEPKLVYVDVYVDPENGLVYARAVTEDGGEAEFRFESAGGSA [r2_428_TrMRF] | 0.448 kcal/mol
SAGGSAGGSAGEFELLSVEYFPPIGRVRVAYRRGDLVLVVDFFNPENPEIRPVSLSDELGSAGGSAGGSAGG [r17_145_TrMRF] | 2.64 kcal/mol
SMNIVEIEVEEKIIGDTTTITIPIKVNGPAVSEEEIKKIVEDIFKKKGLKINIKIEKDPNSGVITITIIESA [r9_717_JUSTAS] | 2.01 kcal/mol

----------
Assay: folding stability dG unfold (combined trypsin and chymotrypsin); higher = more stable
assay_metric: folding stability dG unfold

sequence_code | assay_metric | observed_result
SAGGSAGGSAGGASLKVVEREVEYYDPETGETVRVKALVTVDPNSDKEILDPEEKEKLLSSAGGSAGGSAGG [r7_557_JUSTAS] | folding stability dG unfold | 0.907 kcal/mol
SAMEVIELEFPSVEELEAALKEKFNVEVEKLPDGTKRIKVEVDGELVLIEITDDKVRIRIISKEELEKLSAG [r14_402_TrROS_Hall] | folding stability dG unfold | 2.42 kcal/mol
SAGGSAGGSAVVSVSPDGYLRLAYYPETGELRELPPDVSVEEFLEAFPDVVVLAAPVAPTPESAGGSAGGSA [r18_53_TrMRF] | folding stability dG unfold | 1.41 kcal/mol
SAGGSAGGSAGMMKVRIRVDGKEIEIEVPPGMTVDEIAERLKKEFGKDIEIEVEEVKPEPSAGGSAGGSAGG [r11_805_TrROS_Hall] | folding stability dG unfold | 3.39 kcal/mol
SVIIKGPGPETYYVEKFGNETKITKFSTEGDKFYKKEYYETFDPNNKTVSRKENEVEEIEPEEEKPFSELSA [r9_83_JUSTAS] | folding stability dG unfold | 0.0208 kcal/mol
SAGGSAGGSAGSIKEALKKLKPGDTVEIEITLKDGSKIKIRVKVIRDKKTKKYKVKIEIESAGGSAGGSAGG [r11_343_TrROS_Hall] | folding stability dG unfold | 3.99 kcal/mol
SAGGSAGGSNELLKKLGLKPDQTILVLARPGEIEKLRKEKPIKRIEVTPLPDDLYLYRIEVEGSAGGSAGGS [r12_750_TrMRF] | folding stability dG unfold | 0.192 kcal/mol
SAGGSAGGSAGGSKPKKIKVETVTLEDGLTLQVVVNEDTKEKVIVLVPPSEEVTVLVEPSAGGSAGGSAGGS [r4_99_TrROS_Hall] | folding stability dG unfold | 0.648 kcal/mol
SAGGSAGGSAGKWKTITILIPNMPVEEIADRIMDKFGPGIRITEITPNKPGWFWITIIVRSAGGSAGGSAGG [r11_580_TrROS] | folding stability dG unfold | 3.62 kcal/mol
SAGDAEEIAKKIEEAAREEFAARLGYPDLEILKVEVLEVDPVTGRVRVRVTVRLPDGRLLEAEFEVPVASAG [r5_20_TrMRF] | folding stability dG unfold | 3.65 kcal/mol
SAGGSAGGSAGLPEEIADFVKEILEKAFPNVKVLEVEVEELPEGFYVVRARFEDGSEVEFPISAGGSAGGSA [r18_423_TrMRF] | folding stability dG unfold | 3.88 kcal/mol
SAGGSAGGMVPITDLTVDSEEFVLPTGGVATRETITRPATGLVYEKVVFTPKPGVVEQREVALLSAGGSAGG [r6_895_JUSTAS] | folding stability dG unfold | < -1 kcal/mol
SAGGSAMIVIPVDPNDPAAEKTVAEAIAAGKDVIIRSPSGKYTFYKPDGSKKELSSEEEIKKAGLESAGGSA [r15_94_JUSTAS] | folding stability dG unfold | 0.0288 kcal/mol
SAGGSAGGSAGGRFEVLGVEPLPGNWVRVRVRYPGLGREATFLVRVSSLPLPPVDLDRFDSAGGSAGGSAGG [r11_986_TrMRF] | folding stability dG unfold | 2.71 kcal/mol

----------
Assay: folding stability dG unfold from chymotrypsin proteolysis; higher = more stable
Label rule met when folding stability dG unfold is at or above 10 kJ/mol; otherwise label rule not met.

sequence_code | group_label
SAGGSANGYFILIKIEEIKLTKMRRDPDGKQWQWNFSVKIKIEVVKVFRIKPDPNGNWKIEPGDPISAGGSA [r15_162_TrROS] | rule met
SAGGSIPPGARVETLEVVTSSSSDGTVTTTTLTRVTSPEDSVSERTRTTTDPVVPPPATPTNPVSLASAGGS [r8_90_JUSTAS] | rule not met
SAGGLPPGWKPIDIMVLVPPGEPLTEDQVEELAKEIARELQEKGVTIDVRVWPTDDWYFVSVDIQVPDSAGG [r13_442_TrROS] | rule not met
SAGGSAGGSAGVVDEVKAALEPQGLKVLSVTPGSSSVTVTVLDPKKGETTTFTIPLDDPLSAGGSAGGSAGG [r11_428_JUSTAS] | rule not met
SAGGSAAMVPPEELAERLAEELAAKEGREVTEVTVEVLDPERGVVRVTVTFRSPEGLSTRTVVVDLSAGGSA [r15_32_JUSTAS] | rule met
SASPDAPVEVVVSLRELRERIEAEHPGRPVTPEDVAALAREELEAAGRPLEDLRVEAVDEATGTVRLVASAG [r14_303_JUSTAS] | rule not met
SAGDQTITIKIPNAPPGSRVQIMLFDPGKIKGFHEIDPDDPKEVEIKIELPPYTIMIYVADGNVFPIPISAG [r5_646_TrROS] | rule met
